Hey, just so you know, these numbers are from the supplement of paper PMC8728848.

Biological target: Fuc(a1-3)[Gal(b1-4)]GlcNAc6S
Experiment: glycan array binding signal (z-score within array); higher = stronger binding
Details: glycan notation: IUPAC condensed, linker removed
About 410 targets per protein were measured; listed, in parts, are those with the strongest signals and a random draw of the rest.
readout type: glycan array binding signal (z-score)
Provide a numeric answer; units are not to be included.

Some solved cases for reference:
binder: DCIR1 (Mus musculus), Q9QZ15 (protein) MASEITYAEVKFKNESNSLHTYSESPAAPREKPIRDLRKPGSPSLLLTSLMLLLLLLAITFLVAFIIYFQKYSQLLEEKKAAKNIMHNELNCTKSVSPMEDKVWSCCPKDWRLFGSHCYLVPTVSSSASWNKSEENCSRMGAHLVVIQSQEEQDFITGILDTHAAYFIGLWDTGHRQWQWVDQTPYEESITFWHNGEPSSGNEKCATIIYRWKTGWGWNDISCSLKQKSVCQMKKINL
glycan array binding signal (z-score): 1.43

binder: Actd5 (Actinidia), P84527 (protein) ISSCNGPCRDLNDCDGQLICIKGKCNDDPQVGTHICRGTTHSHQPGGCKPSGTLTCRGKSYPTYDCSPPVTSSTPAKLTNNDFSEGGDDGGPSECDESYHNNNERIVALSTGWYNGGSRCGKMIRITASNGKSVSAKVVDECDSRHGCDKEHAGQPPCRNNIVDGSNAVWSALGLDKNVGVVDITWSMA
glycan array binding signal (z-score): 0.273

# next binder below
State the recorded glycan array binding signal (z-score) for this entry: cFel (Cyprinus carpio), P68512 (protein) LDCTVIDGNLKQIDAGSGSVVGVNNLNETFVLIDNVFTKISGSLKHFSVGPAGQLGVNTANNIFKYQSGGFVQLAGLLKQVDAGGDQIIAGVNMYDDIYCLNMDANNKWPSSNTPWVQINGKLKYYSCGPYSCWGVNSNDQIFIMKDVSSNVCSGSGSFINIPGLLSMIEVATDGSVFGVNSQGNLYQRTGVTRSKPDGTDWISMVACPNGHKHVSFDLGVLWLVCVDGSIRKCILTD
0.043
